Target: Tyrosine-protein kinase JAK3 (Homo sapiens) (UniProt P52333)
Sequence (P52333 whole entry): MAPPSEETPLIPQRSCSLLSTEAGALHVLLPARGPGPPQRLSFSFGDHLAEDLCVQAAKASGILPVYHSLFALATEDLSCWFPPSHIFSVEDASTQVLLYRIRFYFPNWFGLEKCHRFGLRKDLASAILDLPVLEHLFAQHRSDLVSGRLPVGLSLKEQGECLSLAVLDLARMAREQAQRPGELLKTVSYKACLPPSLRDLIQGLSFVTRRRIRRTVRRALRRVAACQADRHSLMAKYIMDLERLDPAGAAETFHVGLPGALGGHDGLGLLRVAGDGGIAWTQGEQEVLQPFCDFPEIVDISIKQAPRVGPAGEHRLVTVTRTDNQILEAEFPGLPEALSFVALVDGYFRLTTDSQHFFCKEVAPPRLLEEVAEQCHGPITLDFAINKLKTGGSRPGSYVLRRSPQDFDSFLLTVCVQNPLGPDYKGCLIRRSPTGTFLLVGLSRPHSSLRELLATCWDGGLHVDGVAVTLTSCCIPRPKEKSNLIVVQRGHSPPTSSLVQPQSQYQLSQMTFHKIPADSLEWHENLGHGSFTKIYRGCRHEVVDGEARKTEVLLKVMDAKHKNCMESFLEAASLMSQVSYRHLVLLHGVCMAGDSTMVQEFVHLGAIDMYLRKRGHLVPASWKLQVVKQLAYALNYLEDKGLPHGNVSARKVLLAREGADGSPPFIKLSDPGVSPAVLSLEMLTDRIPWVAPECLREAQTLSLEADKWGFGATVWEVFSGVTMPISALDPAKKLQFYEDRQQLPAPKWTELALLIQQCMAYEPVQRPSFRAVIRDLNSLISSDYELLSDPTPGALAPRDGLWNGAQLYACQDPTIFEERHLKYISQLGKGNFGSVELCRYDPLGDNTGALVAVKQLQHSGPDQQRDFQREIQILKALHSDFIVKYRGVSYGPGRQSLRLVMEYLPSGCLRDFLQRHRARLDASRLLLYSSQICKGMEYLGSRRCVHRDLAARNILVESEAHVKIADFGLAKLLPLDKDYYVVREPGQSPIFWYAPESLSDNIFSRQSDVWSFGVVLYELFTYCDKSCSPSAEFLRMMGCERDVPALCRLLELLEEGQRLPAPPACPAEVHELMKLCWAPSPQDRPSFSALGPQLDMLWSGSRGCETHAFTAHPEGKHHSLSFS
Conditions: at 1 µM
Description: GSK_PKIS: JAK3 mean inhibition at 1 uM [Nanosyn]
We begin with a simple list: items and their reported inhibition.
Don't forget the unit after the value.

Take a look at these entries with their results.
sample-smiles | readout-kind | test-value
COc1cc2ncnc(Nc3ccc4c(cnn4Cc4ccccc4)c3)c2cc1OC | inhibition | 1.82%
Nc1ccc(C#Cc2cncnc2Nc2ccc(OCc3cccc(F)c3)c(Cl)c2)cc1 | inhibition | -0.39%
NS(=O)(=O)c1cccc(-c2cc3ccncc3cc2OCc2ccccc2)c1 | inhibition | 0.81%

Looking for the measured inhibition of `Nc1nccc(-c2c(-c3ccc(F)cc3)nn3cc(C(F)(F)F)ccc23)n1` , can you help?
-0.29%

Looking for the measured inhibition of `N#Cc1c(NC(=O)c2ccccc2F)sc2c1CCCC2` , can you help?
2.45%

Looking for the measured inhibition of `OCc1ccc(-c2nc(-c3ccccn3)c(-c3ccc4c(c3)OCO4)[nH]2)cc1` , can you help?
0.74%

---

Target: Inhibitor of nuclear factor kappa-B kinase subunit epsilon (Homo sapiens) (UniProt Q14164);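 further: mean inhibition of IKKε reported, from the GSK PKIS dataset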
Sequence (Q14164 whole entry): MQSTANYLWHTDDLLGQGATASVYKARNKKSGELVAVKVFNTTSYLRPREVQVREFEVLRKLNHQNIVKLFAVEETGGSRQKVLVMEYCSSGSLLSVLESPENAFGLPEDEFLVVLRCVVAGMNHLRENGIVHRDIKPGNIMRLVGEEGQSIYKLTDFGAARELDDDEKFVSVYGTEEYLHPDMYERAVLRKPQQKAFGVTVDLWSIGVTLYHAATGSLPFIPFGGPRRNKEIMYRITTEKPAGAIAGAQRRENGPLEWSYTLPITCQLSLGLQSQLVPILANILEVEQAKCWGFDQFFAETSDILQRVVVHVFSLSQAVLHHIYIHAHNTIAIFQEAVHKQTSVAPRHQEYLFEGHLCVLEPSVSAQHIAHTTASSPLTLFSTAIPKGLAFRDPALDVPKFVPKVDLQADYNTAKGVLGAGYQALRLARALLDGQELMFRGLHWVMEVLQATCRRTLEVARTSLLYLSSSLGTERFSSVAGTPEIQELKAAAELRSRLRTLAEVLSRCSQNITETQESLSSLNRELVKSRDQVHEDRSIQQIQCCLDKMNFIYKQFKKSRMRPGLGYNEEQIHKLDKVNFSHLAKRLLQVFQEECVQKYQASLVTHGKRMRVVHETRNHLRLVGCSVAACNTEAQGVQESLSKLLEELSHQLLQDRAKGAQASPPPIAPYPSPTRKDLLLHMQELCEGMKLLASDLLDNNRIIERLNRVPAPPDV
Details: at 0.1 µM
readout-kind: inhibition (%)
Please respond with the number in % and leave the unit unwritten.

Take a look at these entries with their results.
compound | target-entity | inhibition, %
COc1cc2ncnc(Nc3ccc4c(cnn4Cc4ccccc4)c3)c2cc1OC | Inhibitor of nuclear factor kappa-B kinase subunit epsilon (Homo sapiens) (UniProt Q14164) | 2.69
NS(=O)(=O)c1ccc(NC=C2C(=O)Nc3ccc4ncsc4c32)cc1 | Inhibitor of nuclear factor kappa-B kinase subunit epsilon (Homo sapiens) (UniProt Q14164) | 19.3
CN(C)c1cc2c(Nc3ccc4c(cnn4Cc4ccccc4)c3)ncnc2cn1 | Inhibitor of nuclear factor kappa-B kinase subunit epsilon (Homo sapiens) (UniProt Q14164) | 3.9

Quick check: inhibition on Inhibitor of nuclear factor kappa-B kinase subunit epsilon (Homo sapiens) (UniProt Q14164), item CCCN1CCCC(c2ccc(Nc3nc(Nc4cc(F)ccc4C(N)=O)c4cc[nH]c4n3)c(OC)c2)C1 (stereo not given) ?
4.93

Quick check: inhibition on Inhibitor of nuclear factor kappa-B kinase subunit epsilon (Homo sapiens) (UniProt Q14164), item `Cc1nc(-c2ccccc2)n2nc(NCCCN3CCOCC3)ncc12` ?
4.87

Quick check: inhibition on Inhibitor of nuclear factor kappa-B kinase subunit epsilon (Homo sapiens) (UniProt Q14164), item `CCOc1nccc2c1nc(-c1nonc1N)n2CC` ?
7.17

Quick check: inhibition on Inhibitor of nuclear factor kappa-B kinase subunit epsilon (Homo sapiens) (UniProt Q14164), item `COc1cccc(-n2nc(C)c3c(N/N=C(\C)c4ccncc4)ncnc32)c1` ?
-1.8

Quick check: inhibition on Inhibitor of nuclear factor kappa-B kinase subunit epsilon (Homo sapiens) (UniProt Q14164), item `COc1ccc(-c2nn3ncccc3c2-c2ccnc(Nc3cccc(C(F)(F)F)c3)n2)cc1` ?
4.96

Quick check: inhibition on Inhibitor of nuclear factor kappa-B kinase subunit epsilon (Homo sapiens) (UniProt Q14164), item `CN(c1ccc(NC(=O)Nc2ccc(OC(F)(F)F)cc2)cc1)c1ccnc(Nc2cccc(S(N)(=O)=O)c2)n1` ?
5.07

Quick check: inhibition on Inhibitor of nuclear factor kappa-B kinase subunit epsilon (Homo sapiens) (UniProt Q14164), item `CN(C)C(=O)O[C@@H]1CN[C@@H](C#Cc2cc3ncnc(Nc4ccc(OCc5cccc(F)c5)c(Cl)c4)c3s2)C1` ?
0.34
